// values below are reported pKd
Molecular target: T1, human CD166 protein (human, UniProt Q13740 28-526, limits assumed)
T1 construct: Isolated human CD166 protein coated on ELISA plates; also called ALCAM
T1 sequence (looked up): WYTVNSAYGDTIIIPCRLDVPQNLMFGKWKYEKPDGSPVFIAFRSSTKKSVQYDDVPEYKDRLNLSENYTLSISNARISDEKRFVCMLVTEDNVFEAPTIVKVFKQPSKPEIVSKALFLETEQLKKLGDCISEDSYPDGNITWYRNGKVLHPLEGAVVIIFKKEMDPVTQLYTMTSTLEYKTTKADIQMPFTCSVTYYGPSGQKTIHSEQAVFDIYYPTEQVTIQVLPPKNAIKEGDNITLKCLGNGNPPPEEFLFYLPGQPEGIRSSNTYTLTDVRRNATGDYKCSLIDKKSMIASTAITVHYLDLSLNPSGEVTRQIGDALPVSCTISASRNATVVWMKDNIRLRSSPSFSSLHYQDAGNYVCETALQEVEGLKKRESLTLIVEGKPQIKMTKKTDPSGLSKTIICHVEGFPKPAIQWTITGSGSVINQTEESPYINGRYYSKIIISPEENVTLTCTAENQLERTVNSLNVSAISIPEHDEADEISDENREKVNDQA
Assay: ELISA, human CD166 protein coated; apparent Kd
pKd (log units): -log10 of the concentration in mol/L.

In the examples that follow, each entry is paired with its recorded pKd.
Binder: CD166-7614.12-2001 (antibody) chain 1: QITLKESGPTLVKPTQTLTLTCTFSGFSLSTYGMGVGWIRQPPGKALEWLANIWWSEDKHYSPSLKSRLTITKDTSKNQVVLTMTNMDPVDTATYYCVQIDYGNDYAFTYWGQGTLVTVSS chain 2: QGQSGQGHPLVLGGGSSGGSISSGLLSGRSDNHGGGSDIVMTQSPLSLPVTPGEPASISCRSSKSLLHSNGITYLYWYLQKPGQSPQLLIYQMSNLASGVPDRFSGSGSGTDFTLKISRVEAEDVGVYYCAQNLELPYTFGQGTKLEIK
pKd: 6.48
--
Binder: CD166-7614.13-2001 (antibody) chain 1: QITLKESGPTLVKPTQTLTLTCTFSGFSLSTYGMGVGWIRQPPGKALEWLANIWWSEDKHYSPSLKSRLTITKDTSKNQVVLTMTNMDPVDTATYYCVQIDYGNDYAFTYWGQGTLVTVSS chain 2: QGQSGQGHPLGGGSSGGSISSGLLSGRSDNHGGGSDIVMTQSPLSLPVTPGEPASISCRSSKSLLHSNGITYLYWYLQKPGQSPQLLIYQMSNLASGVPDRFSGSGSGTDFTLKISRVEAEDVGVYYCAQNLELPYTFGQGTKLEIK
pKd: 7.11
--
Binder: CD166-7614.11-2001 (antibody) chain 1: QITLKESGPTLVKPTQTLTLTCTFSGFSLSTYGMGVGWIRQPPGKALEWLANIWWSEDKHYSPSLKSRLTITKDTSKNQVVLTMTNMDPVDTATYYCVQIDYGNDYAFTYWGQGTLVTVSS chain 2: QGQSGQGCHPLVLSAWESCGGGSSGGSISSGLLSGRSDNHGGGSDIVMTQSPLSLPVTPGEPASISCRSSKSLLHSNGITYLYWYLQKPGQSPQLLIYQMSNLASGVPDRFSGSGSGTDFTLKISRVEAEDVGVYYCAQNLELPYTFGQGTKLEIK
pKd: 6.26

Need pKd, item CD166-16522.14-2001 (antibody) chain 1: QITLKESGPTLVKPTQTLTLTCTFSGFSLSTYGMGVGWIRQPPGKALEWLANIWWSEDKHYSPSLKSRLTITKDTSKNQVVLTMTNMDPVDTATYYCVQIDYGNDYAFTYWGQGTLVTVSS chain 2: QGQSGQGLEGACLHPLCLWGAGGGGSSGGSISSGLLSGRSDNHGGGSDIVMTQSPLSLPVTPGEPASISCRSSKSLLHSNGITYLYWYLQKPGQSPQLLIYQMSNLASGVPDRFSGSGSGTDFTLKISRVEAEDVGVYYCAQNLELPYTFGQGTKLEIK
6.37

Need pKd, item CD166-7614.5-2001 (antibody) chain 1: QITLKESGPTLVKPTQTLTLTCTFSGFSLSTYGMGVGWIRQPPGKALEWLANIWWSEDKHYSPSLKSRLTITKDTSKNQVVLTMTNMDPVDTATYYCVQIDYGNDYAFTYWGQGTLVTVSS chain 2: QGQSGQGLCHALVLSAWESCSSGGGSSGGSISSGLLSGRSDNHGGGSDIVMTQSPLSLPVTPGEPASISCRSSKSLLHSNGITYLYWYLQKPGQSPQLLIYQMSNLASGVPDRFSGSGSGTDFTLKISRVEAEDVGVYYCAQNLELPYTFGQGTKLEIK
6.31
